# assayMethodText: qHTS of pediatric cancer cell lines to identify multiple opportunities for drug repurposing: Confirmatory screen for A673 cells (AID 1347110);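 note: cells exposed to compound for 48 h before the viability read; nearly all actives have a fitted effect of over 65% in size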
# conditionParameters: A673 Ewing sarcoma cell viability; series mostly up to 45.9 µM
Results filed as inconclusive are left out. Active and inactive are the calls of the source. Calls come from the whole dose curve; as a rule, active = well fitted cell-killing curve with a large enough effect; inconclusive = small, poorly fitted or top-dose-only effect; inactive = flat fitted curve, though single readings scatter.
Outcome codes: T for active, F for inactive

{"compound": "O=NN(CCCl)C(=O)NCCCl", "discreteLabel": "T"}
{"compound": "Cc1cn[nH]c1", "discreteLabel": "F"}
{"compound": "CCOc1ccn(-c2ccc(F)cc2)c(=O)c1C(=O)Nc1ccc(Oc2ccnc(N)c2Cl)c(F)c1", "discreteLabel": "T"}
{"compound": "CCC(C)n1ncn(-c2ccc(N3CCN(c4ccc(OC[C@H]5CO[C@](Cn6cncn6)(c6ccc(Cl)cc6Cl)O5)cc4)CC3)cc2)c1=O (stereo partly specified)", "discreteLabel": "F"}
{"compound": "O=C(NOC[C@H](O)CO)c1ccc(F)c(F)c1Nc1ccc(I)cc1F", "discreteLabel": "F"}
{"compound": "COc1ccc(-c2ccc3c(N4CCOCC4)nc(N4C[C@@H](C)O[C@@H](C)C4)nc3n2)cc1CO", "discreteLabel": "T"}
{"compound": "Oc1cccc(-c2nc(N3CCOCC3)c3oc4ncccc4c3n2)c1", "discreteLabel": "T"}
{"compound": "NCCCC(N)(C(=O)O)C(F)F (stereo unspecified)", "discreteLabel": "F"}
{"compound": "CN1CCN(CCCN2c3ccccc3Sc3ccc(C(F)(F)F)cc32)CC1", "discreteLabel": "T"}
{"compound": "CCCS(=O)(=O)Nc1ccc(F)c(C(=O)c2c[nH]c3ncc(-c4ccc(Cl)cc4)cc23)c1F", "discreteLabel": "T"}
{"compound": "C[C@]1(c2nc3c(C(N)=O)cccc3[nH]2)CCCN1", "discreteLabel": "F"}
